# MEASURED_TARGET: T1, CT45-IP alanine variant, position 1 peptide on HLA-A*02:01 (human)
# T1 peptide: AIFEMLEGV
# TEST_METHOD_NOTES: killing
TEST_READOUT: binding result

TCR-5 (TCR, V domains shown) Valpha: QQLNQSPQSMFIQEGEDVSMNCTSSSIFNTWLWYKQDPGEGPVLLIALYKAGELTSNGRLTAQFGITRKDSFLNISASIPSDVGIYFCAGGYNYGQNFVFGPGTRLSVLP Vbeta: GVTQTPKHLITATGQRVTLRCSPRSGDLSVYWYQQSLDQGLQFLIQYYNGEERAKGNILERFSAQQFPDLHSELNLSSLELGDSALYFCASSAGLAGGYEQYFGPGTRLTVT
recognises
TCR-10 (TCR, V domains shown) Valpha: QNIDQPTEMTATEGAIVQINCTYQTSGFNGLFWYQQHAGEAPTFLSYNVLDGLEEKGRFSSFLSRSKGYSYLLLKELQMKDSASYLCAVPAPYTGTASKLTFGTGTRLQVTL Vbeta: GVTQTPKFQVLKTGQSMTLQCAQDMNHNSMYWYRQDPGMGLRLIYYSASEGTTDKGEVPNGYNVSRLNKREFSLRLESAAPSQTSVYFCASSEGYSTYNEQFFGPGTRLTVL
recognises
TCR-2 (TCR, V domains shown) Valpha: QKITQTQPGMFVQEKEAVTLDCTYDTSDQSYGLFWYKQPSSGEMIFLIYQGSYDEQNATEGRYSLNFQKARKSANLVISASQLGDSAMYFCAMREGSDAGGTSYGKLTFGQGTILTVHP Vbeta: GVIQSPRHLIKEKRETATLKCYPIPRHDTVYWYQQGPGQDPQFLISFYEKMQSDKGSIPDRFSAQQFSDYHSELNMSSLELGDSALYFCASSPSTGRLNTEAFFGQGTRLTVV
recognises
